Test name: Cytotoxicity against african green monkey Vero cells after 48 hrs by MTT assay
Assay type: cell-based
Settings: chlorocebus sabaeus, read-out: LC50
I'd be grateful if you could share measured CC50 at 48 h for these entries.
Numbers only, in µM.

Report CC50 at 48 h for each item below.
1. COc1cc([C@@H]2c3cc4c(cc3[C@@H](O[C@@H]3O[C@@H]5CO[C@@H](C)O[C@H]5[C@H](O)[C@H]3O)[C@H]3COC(=O)[C@H]23)OCO4)cc(OC)c1O [ETOPOSIDE]
2. COc1ccc2c(c1)/C(=N\O)c1c-2n(C)c2ccccc12
3. COc1cc2c(c(OC)c1OC)-c1c(c3ccccc3n1C)C2O (stereo unspecified)
4. NC(=S)N/N=C1\c2ccccc2-c2[nH]c3ccccc3c21

Solution:
1. 29
2. 60
3. 40
4. 50

Please go through the list and note CC50 at 48 h for each molecule.
1. O/N=C1\c2ccccc2-c2[nH]c3ccccc3c21
2. COc1ccc2c(c1)C(O)c1c-2n(C)c2ccccc12 (stereo unspecified)

Solution:
60
30

----------
Test system: Nucleic Acid
Test name: Induction of DNA intercalation in negatively Escherichia coli super coiled small circular plasmid DNA assessed as retradation of DNA migration at 100 uM incubated for 20 mins at 37 degC by agarose-gel electrophoresis
Format: nucleic-acid assay
The source made the active and inactive calls. No cut-off for these calls is given here.
Outcome (select one): class 1 = active, class 0 = inactive

The examples below pair each entry with its known result.
| Compound | Group |
| --- | --- |
| COc1cc2c(c(OC)c1OC)-c1c(c3ccccc3n1C)C2O (configuration not stated) | class 0 |
| COc1cc([C@@H]2c3cc4c(cc3[C@@H](O[C@@H]3O[C@@H]5CO[C@@H](C)O[C@H]5[C@H](O)[C@H]3O)[C@H]3COC(=O)[C@H]23)OCO4)cc(OC)c1O [ETOPOSIDE] | class 0 |
| O/N=C1\c2ccccc2-c2[nH]c3ccccc3c21 | class 0 |
| COc1ccc2c(c1)/C(=N\O)c1c-2n(C)c2ccccc12 | class 0 |

Problem: Hey, what did the test say about NC(=S)N/N=C1\c2ccccc2-c2[nH]c3ccccc3c21 ?
Solution: class 0

Problem: What outcome does the record of this test show for COc1ccc2c(c1)C(O)c1c-2n(C)c2ccccc12 (configuration not stated) ?
Solution: class 0

Problem: # outcome recorded in this test, key = CC[n+]1c(-c2ccccc2)c2cc(N)ccc2c2ccc(N)cc21
Solution: class 1
